- experimental target: α-glucosidase from Saccharomyces cerevisiae
- assay overview: α-glucosidase inhibition assay (p-NPG substrate, pNP release over 60 min)
- applied conditions: compounds and acarbose; max concentration tested 1 mM; '-' = no inhibitory activity at maximum dose tested
pIC50: −log10 of the molar value.
parameter: pIC50

molecule	observed
CCCCC/C=C\C/C=C\CCCCCCCC(=O)O [Compound 6, Linoleic acid]	6.38

Req: Request: pIC50, test system α-glucosidase from Saccharomyces cerevisiae, entry C=C(C)[C@@H]1CC[C@]2(C)CC[C@]3(C)[C@H](CC[C@@H]4[C@@]5(C)CC[C@H](OC(C)=O)C(C)(C)[C@@H]5CC[C@]43C)[C@@H]12 [Compound 1, Lupeol acetate]
Resp: < 4.38

Req: Request: pIC50, test system α-glucosidase from Saccharomyces cerevisiae, entry Oc1cc(O)c2c(c1)O[C@H](c1ccc(O)c(O)c1)[C@@H](O)C2 [Compound 7, (+)-Catechin]
Resp: 5.26

Req: Request: pIC50, test system α-glucosidase from Saccharomyces cerevisiae, entry C=C(C)[C@@H]1CC[C@]2(C)CC[C@]3(C)[C@H](CC[C@@H]4[C@@]5(C)CC[C@H](O)C(C)(C)[C@@H]5CC[C@]43C)[C@@H]12 [Compound 3, Lupeol]
Resp: < 4.38
